From: patent EP0823908B1

Entries and their pIC50 values follow.
- EXPERIMENTAL TARGET: Human EGF receptor tyrosine kinase (Homo sapiens)
- Construct: Human EGF receptor tyrosine kinase was isolated from A431 epidermoid carcinoma cells; endogenous in cells
- Sequence (P00533 25-1210): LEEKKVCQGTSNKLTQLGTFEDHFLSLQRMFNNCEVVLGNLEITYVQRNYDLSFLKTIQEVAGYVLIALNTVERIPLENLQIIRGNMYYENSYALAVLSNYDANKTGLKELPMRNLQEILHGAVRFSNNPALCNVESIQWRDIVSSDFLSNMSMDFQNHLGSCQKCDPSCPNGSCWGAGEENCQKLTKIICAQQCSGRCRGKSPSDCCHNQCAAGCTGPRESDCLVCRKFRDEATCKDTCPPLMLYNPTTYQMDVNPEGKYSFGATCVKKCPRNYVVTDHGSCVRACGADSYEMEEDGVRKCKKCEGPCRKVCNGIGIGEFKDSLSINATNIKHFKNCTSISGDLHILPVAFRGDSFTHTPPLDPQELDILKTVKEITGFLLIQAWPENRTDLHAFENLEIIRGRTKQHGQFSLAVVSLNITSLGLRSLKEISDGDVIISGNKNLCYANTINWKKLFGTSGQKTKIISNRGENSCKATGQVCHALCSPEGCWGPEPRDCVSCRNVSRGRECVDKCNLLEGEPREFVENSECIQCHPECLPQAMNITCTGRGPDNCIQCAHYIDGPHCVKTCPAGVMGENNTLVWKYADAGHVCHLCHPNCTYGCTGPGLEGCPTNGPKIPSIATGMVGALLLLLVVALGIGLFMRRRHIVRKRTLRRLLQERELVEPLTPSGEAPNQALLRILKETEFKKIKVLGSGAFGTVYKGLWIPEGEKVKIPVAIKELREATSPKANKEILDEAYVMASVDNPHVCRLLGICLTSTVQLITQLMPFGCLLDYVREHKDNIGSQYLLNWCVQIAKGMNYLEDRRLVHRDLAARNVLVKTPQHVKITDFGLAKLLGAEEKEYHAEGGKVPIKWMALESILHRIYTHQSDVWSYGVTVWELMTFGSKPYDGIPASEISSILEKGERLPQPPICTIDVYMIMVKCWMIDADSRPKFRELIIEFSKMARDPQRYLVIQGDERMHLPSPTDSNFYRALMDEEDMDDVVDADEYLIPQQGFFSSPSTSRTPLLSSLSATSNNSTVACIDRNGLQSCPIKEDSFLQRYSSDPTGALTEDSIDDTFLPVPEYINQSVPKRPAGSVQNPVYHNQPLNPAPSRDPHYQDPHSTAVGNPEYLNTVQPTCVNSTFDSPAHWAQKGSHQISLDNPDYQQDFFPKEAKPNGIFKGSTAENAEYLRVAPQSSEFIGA
- PROCEDURE TEXT: EGF receptor tyrosine kinase enzyme assay (substrate peptide phosphorylation)
- ASSAY CONDITIONS: read-out: EGF-FL IC50
pIC50 field: float, defined as -log10 of concentration (mol/L).

SMILES INPUT: COc1cc(Nc2ncc3cc(-c4c(Cl)cccc4Cl)c(=O)n(C)c3n2)cc(OC)c1
ASSAY RESULT: 7.23

Request - read-out pIC50 | tested on Human EGF receptor tyrosine kinase (Homo sapiens) | compound CCn1c(=O)c(-c2c(Cl)cccc2Cl)cc2cnc(Nc3ccc(OC)c(OC)c3)nc21
7.03

Hi! What's the reported pIC50 for Nc1ncc2cc(-c3c(Cl)cccc3Cl)c(=O)n(Cc3c(Cl)cccc3Cl)c2n1 on Human EGF receptor tyrosine kinase (Homo sapiens)?
5.85

Provide the documented pIC50 with Human EGF receptor tyrosine kinase (Homo sapiens) as the system for Cn1c(=O)c(-c2c(Cl)cccc2Cl)cc2cnc(Nc3ccc(CC(=O)O)cc3)nc21
6.89

---

- EXPERIMENTAL TARGET: mouse PDGF-β receptor tyrosine kinase (Mus musculus, UniProt P05622)
- Construct: amplify a fragment of DNA that codes for the intracellular tyrosine kinase domain; made in house; host or cells: SF9 insect cells (baculovirus)
- Sequence (P05622 599-961 limits assumed): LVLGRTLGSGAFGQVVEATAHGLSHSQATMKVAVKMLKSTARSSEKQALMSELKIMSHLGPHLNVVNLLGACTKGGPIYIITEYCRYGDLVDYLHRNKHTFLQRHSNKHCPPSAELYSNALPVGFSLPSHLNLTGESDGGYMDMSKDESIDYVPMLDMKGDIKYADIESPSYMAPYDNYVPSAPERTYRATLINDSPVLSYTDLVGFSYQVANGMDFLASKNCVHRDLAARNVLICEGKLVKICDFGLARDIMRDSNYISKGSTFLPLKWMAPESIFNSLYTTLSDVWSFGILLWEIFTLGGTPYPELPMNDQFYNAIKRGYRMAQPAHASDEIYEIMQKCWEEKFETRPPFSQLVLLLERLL
- PROCEDURE TEXT: PDGF receptor tyrosine kinase assay (32P incorporation into glutamate-tyrosine co-polymer)
- Assay type: biochemical
- ASSAY CONDITIONS: read-out: PDGFr-TK % Inhibition at 50 µM
Output schema: class label derived from inhibition at 50 µM. Mapping: I: < 20%; II: ≥ 20% and < 30%; III: ≥ 30%

COMPOUND: Cn1c(=N)c(-c2ccccc2)cc2cnc(N)nc21 [Example 9]
ASSIGNED CLASS: III
//
COMPOUND: Cn1c(=O)c(-c2c(Cl)cccc2Cl)cc2cnc(S(C)(=O)=O)nc21 [Example 39]
ASSIGNED CLASS: I
//
COMPOUND: CCn1c(=O)c(-c2c(Cl)cccc2Cl)cc2cnc(S(C)(=O)=O)nc21 [Example 68]
ASSIGNED CLASS: II
//
COMPOUND: Nc1ncc2cc(-c3c(Cl)cccc3Cl)c(=O)n(CC(=O)O)c2n1 [Example 107]
ASSIGNED CLASS: III
//
COMPOUND: CCn1c(=N)c(-c2ccc(-c3ccccc3)cc2)cc2cnc(Nc3ccccc3)nc21 [Example 123]
ASSIGNED CLASS: II
//
COMPOUND: CSc1ncc2cc(-c3c(Cl)cccc3Cl)c(=N)n(C)c2n1 [Example 19]
ASSIGNED CLASS: I
//
COMPOUND: Cn1c(=N)c(-c2c(Cl)cccc2Cl)cc2cnc(O)nc21 [Example 23]
ASSIGNED CLASS: I
//
COMPOUND: CCn1c(=O)c(-c2ccc(-c3ccccc3)cc2)cc2cnc(Nc3ccccc3)nc21 [Example 124]
ASSIGNED CLASS: III

Please report the category associated with COC(=O)c1ccc(Cn2c(=O)c(-c3c(Cl)cccc3Cl)cc3cnc(N)nc32)cc1 [Example 110] , nothing else.
II

Hi there! Could you help me figure out the category for CCn1c(=O)c(-c2c(Cl)cccc2Cl)cc2cnc(SC)nc21 [Example 67] please?
III

Please report the category associated with CN(C)c1ncc2cc(-c3c(Cl)cccc3Cl)c(=O)n(C)c2n1 [Example 41] , nothing else.
I

GET /class?item= Cc1cccc(C)c1-c1cc2cnc(N)nc2n(C)c1=N [Example 7]
III

---

Some compounds, each annotated with its measured pIC50.
- EXPERIMENTAL TARGET: C-src kinase (Homo sapiens)
- Construct: made in house; host or cells: baculovirus infected insect cells
- PROCEDURE TEXT: C-src kinase assay (poly GluTyr substrate)
- Type: biochemical
- ASSAY CONDITIONS: read-out: C-src TK IC50
- Source text: V-src or C-src kinase is purified from baculovirus infected insect cell lysates using an antipeptide monoclonal antibody directed against the N-terminal 2-17 amino acids. […] The filters are punched, counted in a liquid scintillation counter, and the data examined for inhibitory activity in comparison to a known inhibitor such as erbstatin.
Lab note: report pIC50 as minus log10 of the concentration in molar units, number only.

Known pIC50 results, listed for orientation:
COMPOUND: CCn1c(=O)c(-c2c(Cl)cccc2Cl)cc2cnc(NCCCN3CCN(C)CC3)nc21 [Example 70]
pIC50: 7.15
//
COMPOUND: Cn1c(=O)c(-c2c(Cl)cccc2Cl)cc2cnc(Nc3ccc(Cl)cc3)nc21 [Example 56]
pIC50: 7.15
//
COMPOUND: CC(C)Nc1ncc2cc(-c3c(Cl)cccc3Cl)c(=O)n(C)c2n1 [Example 44]
pIC50: 5.80
//
COMPOUND: Cn1c(=O)c(-c2c(Cl)cccc2Cl)cc2cnc(Nc3ccncc3)nc21 [Example 58]
pIC50: 7.64
//
COMPOUND: Cn1c(=O)c(-c2c(Cl)cccc2Cl)cc2cnc(Nc3ccccc3)nc21 [Example 54]
pIC50: 7.62

Can you look up the measured pIC50 of CC(=O)Nc1ncc2cc(-c3c(Cl)cccc3Cl)c(=O)n(C)c2n1 [Example 15] for me?
5.37

Which measured pIC50 value corresponds to Cn1c(=O)c(-c2c(Cl)cccc2Cl)cc2cnc(Nc3ccc4c(c3)OCO4)nc21 [Example 57] ?
7.30

Which pIC50 is listed for Cc1cccc(C)c1-c1cc2cnc(N)nc2n(C)c1=O [Example 13] ?
6.54

Requested field: pIC50. Item: Cn1c(=O)c(-c2c(Cl)cccc2Cl)cc2cnc(NCc3cccnc3)nc21 [Example 50]
5.49

What value of pIC50 has been reported for the following compound? Cn1c(=O)c(-c2c(Cl)cccc2Cl)cc2cnc(Nc3cccnc3)nc21 [Example 79]
7.36

---

The compounds listed here are annotated with their IC50.
- EXPERIMENTAL TARGET: mouse PDGF-β receptor tyrosine kinase (Mus musculus)
- Construct: amplify a fragment of DNA that codes for the intracellular tyrosine kinase domain
- PROCEDURE TEXT: PDGF receptor tyrosine kinase assay (32P incorporation into glutamate-tyrosine co-polymer)
- ASSAY CONDITIONS: read-out: PDGFr-TK IC50
Please reply with the bare figure in µM and do not write the unit itself.

SMILES INPUT: CCn1c(=O)c(-c2c(Cl)cccc2Cl)cc2cnc(Nc3cc(OC)c(OC)c(OC)c3)nc21
IC50 / µM: 1.69

SMILES INPUT: Cn1c(=O)c(-c2c(Cl)cccc2Cl)cc2cnc(NCCc3ccccn3)nc21
IC50 / µM: 7.16

// next item, IC50 requested
Please give the measured IC50 for this compound: Cn1c(=O)c(-c2c(Cl)cccc2Cl)cc2cnc(NCCO)nc21
5.35

---

Measured pIC50, listed per entry for reference.
- EXPERIMENTAL TARGET: C-src kinase (Homo sapiens, UniProt P12931)
- Construct: made in house; host or cells: baculovirus infected insect cells
- Sequence (P12931 whole entry): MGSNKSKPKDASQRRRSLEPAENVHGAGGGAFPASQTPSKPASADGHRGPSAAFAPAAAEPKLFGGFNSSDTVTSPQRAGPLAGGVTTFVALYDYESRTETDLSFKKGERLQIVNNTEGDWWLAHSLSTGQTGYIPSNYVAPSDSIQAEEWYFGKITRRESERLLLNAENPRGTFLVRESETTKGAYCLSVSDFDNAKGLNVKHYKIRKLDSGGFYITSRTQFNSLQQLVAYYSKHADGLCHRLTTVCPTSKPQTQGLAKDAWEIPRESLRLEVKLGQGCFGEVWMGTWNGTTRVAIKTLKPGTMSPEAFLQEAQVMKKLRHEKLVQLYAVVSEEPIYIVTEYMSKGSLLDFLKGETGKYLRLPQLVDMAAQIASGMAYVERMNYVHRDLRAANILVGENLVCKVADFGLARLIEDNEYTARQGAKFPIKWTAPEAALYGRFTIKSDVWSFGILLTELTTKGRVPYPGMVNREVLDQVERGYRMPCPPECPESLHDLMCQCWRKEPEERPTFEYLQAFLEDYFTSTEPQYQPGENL
- PROCEDURE TEXT: C-src kinase assay (poly GluTyr substrate)
- Format: biochemical
- ASSAY CONDITIONS: read-out: C-src TK IC50
Bear in mind: pIC50 is minus log10 of a mol/L concentration; give just that figure.

Some entries whose results are on file:
SMILES INPUT: Cn1c(=O)c(-c2c(Cl)cccc2Cl)cc2cnc(NCCCCCC(=O)O)nc21
pIC50: 6.44
--
SMILES INPUT: CCOC(=O)c1cccc(Nc2ncc3cc(-c4c(Cl)cccc4Cl)c(=O)n(C)c3n2)c1
pIC50: 7.85
--
SMILES INPUT: COc1ccc(Nc2ncc3cc(-c4c(Cl)cccc4Cl)c(=O)n(C)c3n2)cc1C
pIC50: 7.43
--
SMILES INPUT: CCn1c(=O)c(-c2ccccc2)cc2cnc(Nc3ccccc3)nc21
pIC50: 5.86
--
SMILES INPUT: Cn1c(=O)c(-c2c(Cl)cccc2Cl)cc2cnc(NC3CCCCC3)nc21
pIC50: 5.79
--
SMILES INPUT: COc1ccccc1N1CCN(CCCNc2ncc3cc(-c4c(Cl)cccc4Cl)c(=O)n(C)c3n2)CC1
pIC50: 5.98

Data request, read-out pIC50, for Cn1c(=O)c(-c2c(Cl)cccc2Cl)cc2cnc(Nc3cccc(C(=O)O)c3)nc21
8.22

Could you share which pIC50 value was measured for COC(=O)c1ccc(Cn2c(=O)c(-c3c(Cl)cccc3Cl)cc3cnc(N)nc32)cc1 ?
4.76

Consider the compound COc1cc(Nc2ncc3cc(-c4c(Cl)cccc4Cl)c(=O)n(C)c3n2)cc(OC)c1 and give its measured pIC50.
7.72

---

Below, each entry is listed with its recorded IC50.
- EXPERIMENTAL TARGET: mouse PDGF-β receptor tyrosine kinase (Mus musculus)
- Construct: amplify a fragment of DNA that codes for the intracellular tyrosine kinase domain
- PROCEDURE TEXT: PDGF receptor tyrosine kinase assay (32P incorporation into glutamate-tyrosine co-polymer)
- ASSAY CONDITIONS: read-out: PDGFr-TK IC50
Don't forget the unit after the number, please.

SMILES INPUT: CCn1c(=N)c(-c2ccccc2)cc2cnc(Nc3ccccc3)nc21
ASSAY RESULT: 170 nM

Fill in: IC50 of Cn1c(=O)c(-c2c(Cl)cccc2Cl)cc2cnc(NCCCN3CCOCC3)nc21 is ___
5980 nM

Item under review: Cn1c(=O)c(-c2c(Cl)cccc2Cl)cc2cnc(Nc3ccncc3)nc21 . Reported IC50?
71 nM

Which measured IC50 value corresponds to Cn1c(=O)c(-c2c(Cl)cccc2Cl)cc2cnc(NCc3cccnc3)nc21 ?
7310 nM

GET /values?readout=IC50&item= COc1ccccc1Nc1ncc2cc(-c3c(Cl)cccc3Cl)c(=O)n(C)c2n1
1140 nM
